Items are presented alongside their recorded abundance fitness.
B1: Glucocorticoid receptor, residues 419 to 494; numbered along this chain, P04150 (parent)
chain: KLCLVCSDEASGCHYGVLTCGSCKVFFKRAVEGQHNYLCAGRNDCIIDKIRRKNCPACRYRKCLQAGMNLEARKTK

variants of: B1; experiment: abundance fitness (aPCA) (normalised: wild type 0, dead -1); higher = more abundant; growth selection in yeast, the domain comes from the species named; conditions: Homo sapiens
Endpoint: abundance fitness

Mutant designation: A40V
Readout value: 0.019
--
Mutant designation: N43C
Readout value: -0.193
--
Mutant designation: G21M
Readout value: -0.032
--
Mutant designation: E71P
Readout value: -0.038
--
Mutant designation: N54G
Readout value: -0.104
--
Mutant designation: C58S
Readout value: -0.697
--
Mutant designation: N36A
Readout value: -0.012
--
Mutant designation: S7H
Readout value: 0.021
--
Mutant designation: D44M
Readout value: 0
--
Mutant designation: A57C
Readout value: -0.039
--
Mutant designation: K53G
Readout value: 0.039
--
Mutant designation: C13R
Readout value: -0.025
--
Mutant designation: G33L
Readout value: -0.093
--
Mutant designation: N54R
Readout value: -0.053
--
Mutant designation: A30W
Readout value: -0.183
--
Mutant designation: Y15N
Readout value: 0.004
--
Mutant designation: R61K
Readout value: -0.017
--
Mutant designation: R29G
Readout value: -0.057
--
Mutant designation: K53I
Readout value: -0.091
--
Mutant designation: M68C
Readout value: -0.12
--
Mutant designation: L70A
Readout value: -0.058
--
Mutant designation: N36M
Readout value: 0.008
--
Mutant designation: T19G
Readout value: -0.393
--
Mutant designation: V25I
Readout value: 0.021
--
Mutant designation: D44L
Readout value: -0.189
--
Mutant designation: C39N
Readout value: -0.603
--
Mutant designation: R42F
Readout value: 0.077
--
Mutant designation: L4C
Readout value: 0.016
--
Mutant designation: C3W
Readout value: -0.879
--
Mutant designation: E71R
Readout value: -0.095
--
Mutant designation: L70N
Readout value: -0.011
--
Mutant designation: V17P
Readout value: -0.215
--
Mutant designation: R73H
Readout value: -0.109
--
Mutant designation: C45A
Readout value: -0.797
--
Mutant designation: V17S
Readout value: -0.172
--
Mutant designation: Y37V
Readout value: -0.116
--
Mutant designation: T75V
Readout value: -0.064
--
Mutant designation: Y60M
Readout value: -0.07
--
Mutant designation: D8N
Readout value: -0.147
--
Mutant designation: R42A
Readout value: 0.01
--
Mutant designation: R51Q
Readout value: -0.002
--
Mutant designation: T75C
Readout value: -0.075
--
Mutant designation: C39T
Readout value: -0.553
--
Mutant designation: E9W
Readout value: 0.062
--
Mutant designation: I46W
Readout value: -0.137
--
Mutant designation: I47S
Readout value: -0.252

Provenance of the data: the Human Domainome abundance scans (Beltran et al. 2025)
